method: Quantitative High-Throughput drug screen in 47 multiple myeloma cell lines against the NCATS MIPE library collection: INA6_PLB cell viability assay (AID 1918965; further: nearly all actives have a fitted effect of over 55% in size)
study_conditions: INA6 myeloma viability, CellTiter-Glo ATP luminescence, 48 h; series mostly up to 45.8 µM
Records with an inconclusive call do not appear. Activity calls are given as the source filed them. The call rests on the fitted dose curve; in most records, active means well fitted cell-killing curve with a large enough effect; inconclusive means small, poorly fitted or top-dose-only effect, or effect the other way; inactive means no such curve, though single readings can be large or run the other way.
Entry note: the call must match one of active, inactive

Examples with answers:
In [3]: df
Out[3]:
                                   compound     group
0  CN(CCOc1ccc(CC2SC(=O)NC2=O)cc1)c1ccccn1 (stereo not given)  inactive
1   N=C(N)c1ccc(OCCCCCOc2ccc(C(=N)N)cc2)cc1    active
2                           NNC(=O)c1ccncc1  inactive
3                   Oc1c(Cl)cc(Cl)c2cccnc12    active
4  CN1CCN(c2c(F)cc3c(=O)c(C(=O)O)cn4c3c2OCN4C)CC1  inactive

Just curious, what result did CN(C)CCc1c[nH]c2ccc(CS(=O)(=O)N3CCCC3)cc12 get here? active

I would be grateful if you could indicate the recorded call for CCOC(=O)c1ccc(C#Cc2ccc3c(c2)C(C)(C)CCS3)nc1 . inactive

Please share the test call associated with COc1cc2nc(N3CCCN(C)CC3)nc(NC3CCN(Cc4ccccc4)CC3)c2cc1OC . active

Hi team, can someone confirm the assay call for Nc1nc(F)nc2c1ncn2[C@@H]1O[C@H](CO)[C@@H](O)[C@@H]1O ? active

---

method: Quantitative High-Throughput drug screen in 47 multiple myeloma cell lines against the NCATS MIPE library collection: Karpas417_ECACC cell viability assay (AID 1918961); further: potency means the concentration at half of the fitted maximal effect
study_conditions: Karpas417 myeloma viability, CellTiter-Glo ATP luminescence, 48 h
Results filed as inconclusive are left out. The source made the active and inactive calls. The call rests on the fitted dose curve; in most records, active means well fitted cell-killing curve with a large enough effect; inconclusive means small, poorly fitted or top-dose-only effect, or effect the other way; inactive means no such curve, though single readings can be large or run the other way.
quantity: Potency

>>> df
                            compound_string  quantity              result
0  CN(C)CCc1c[nH]c2ccc(C[C@H]3COC(=O)N3)cc12   Potency    3.72 µM (active)
1  Nc1nc(F)nc2c1ncn2[C@@H]1O[C@H](CO)[C@@H](O)[C@@H]1O   Potency  0.0469 µM (active)
2  CNS(=O)(=O)CCc1ccc2[nH]cc(C3CCN(C)CC3)c2c1   Potency    16.6 µM (active)
3  C[C@@H]1C[C@H]2[C@@H]3CCC4=CC(=O)C=C[C@]4(C)[C@@]3(Cl)[C@@H](O)C[C@]2(C)[C@@]1(OC(=O)c1ccco1)C(=O)CCl   Potency    8.33 µM (active)

Given CCN(CC)CCn1c(=O)c(Cc2ccc(OC)cc2)nc2ccccc21 , respond with its Potency. inactive

Supply Potency value. Item: COc1nc(N)nc2c1ncn2[C@@H]1O[C@H](CO)[C@@H](O)[C@@H]1O inactive

// Input: Cc1onc(-c2ccccc2Cl)c1C(=O)N[C@@H]1C(=O)N2[C@@H]1SC(C)(C)[C@@H]2C(=O)O . Output its Potency only. inactive

---

method: qHTS of pediatric cancer cell lines to identify multiple opportunities for drug repurposing: Primary screen for SK-N-MC cells (AID 1347093)
study_conditions: SK-N-MC viability, CellTiter-Glo luminescence, 48 h; series mostly up to 46 µM
Results filed as inconclusive are left out. The source made the active and inactive calls. Calls follow the shape of the dose curve; as a rule, active = well fitted cell-killing curve with a large enough effect; inconclusive = small, poorly fitted or top-dose-only effect; inactive = no such curve, though single readings can be large or run the other way.
Your answer must be one of the following: active, inactive

In [3]: df
Out[3]:
                                   molecule     group
0  CCOC(=O)c1ccc(C#Cc2ccc3c(c2)C(C)(C)CCS3)nc1    active
1  C[C@]12C=CC(=O)C=C1CC[C@@H]1[C@@H]2C(=O)C[C@@]2(C)[C@H]1CC[C@]2(O)C(=O)CO  inactive
2            N[C@@H](Cc1ccc(O)c(O)c1)C(=O)O    active
3                   CC1=NN(c2ccccc2)C(=O)C1  inactive

Dear all, I need the recorded test outcome for Cc1ccc(S(=O)(=O)N[C@@H](Cc2ccccc2)C(=O)CCl)cc1 , thank you. active

I'd appreciate the recorded outcome for CNNCc1ccc(C(=O)NC(C)C)cc1 from this test. inactive

Hello, I am checking results. What call was entered for CCN[C@H]1C[C@H](C)S(=O)(=O)c2sc(S(N)(=O)=O)cc21 ? inactive

---

Test system: TAB109
method: qHTS profiling for inhibitors of Plasmodium falciparum proliferation (AID 504749); further: nearly all actives have a fitted effect of over 60% in size; further: potency means the concentration at half of the fitted maximal effect
study_conditions: P. falciparum in erythrocytes, SYBR Green DNA, 72 h; series mostly up to 28.7 µM
Results filed as inconclusive are left out. Calls of active or inactive are those of the source. Calls come from the whole dose curve; as a rule, active = well fitted inhibition curve with a large enough effect; inconclusive = small, poorly fitted or top-dose-only effect; inactive = flat fitted curve, though single readings scatter.
quantity: Potency

Some solved entries appear below for comparison.
                                   compound  tested_on            result
0         COc1cnc(NS(=O)(=O)c2ccc(N)cc2)nc1     TAB109          inactive
1  COc1cc2c(Nc3ccc(Br)cc3F)ncnc2cc1OCC1CCN(C)CC1     TAB109  2.24 µM (active)
2              CC(C)Cn1cnc2c(N)nc3ccccc3c21     TAB109          inactive
3  COc1cc(NCc2ccc3nc(N)nc(N)c3c2C)cc(OC)c1OC     TAB109     1 µM (active)

Let's switch to this compound now.
Return the recorded Potency value; entry: CCCCOc1ccc(CC(=O)NO)cc1 2.24 µM (active)

---

method: Quantitative High-Throughput drug screen in 47 multiple myeloma cell lines against the NCATS MIPE library collection: OPM2_DSMZ cell viability assay (AID 1919872); further: nearly all actives have a fitted effect of over 30% in size
study_conditions: OPM2 myeloma viability, CellTiter-Glo ATP luminescence, 48 h; series mostly up to 45.8 µM
Results filed as inconclusive are left out. Activity calls are given as the source filed them. Calls follow the shape of the dose curve; as a rule, active = well fitted cell-killing curve with a large enough effect; inconclusive = small, poorly fitted or top-dose-only effect, or effect the other way; inactive = no such curve, though single readings can be large or run the other way.
quantity: Potency

>>> print(df.to_string())
                                   compound  quantity    result
0     COc1cc(NS(=O)(=O)c2ccc(N)cc2)nc(OC)n1   Potency  inactive
1         COc1cnc(NS(=O)(=O)c2ccc(N)cc2)nc1   Potency  inactive
2  CCOC(=O)c1ccc(C#Cc2ccc3c(c2)C(C)(C)CCS3)nc1   Potency  inactive
3           Cc1cc(NS(=O)(=O)c2ccc(N)cc2)no1   Potency  inactive
4  COc1ccccc1OCC(O)COC(N)=O (stereo not drawn)   Potency  inactive

Consider the record given below.
Name the recorded Potency of the compound listed here: NC(=O)c1ccc2[nH]ccc2c1 inactive

---

System: HeLa
method: Primary qHTS to identify gynecologic anti-cancer compounds using libraries of approved drugs and bioactive compounds (AID 1345084); further: nearly all actives have a fitted effect of over 55% in size
study_conditions: Gynecologic cancer cell panel viability, ATPlite luminescence, 48 h; series mostly up to 57.5 µM
Results filed as inconclusive are left out. Activity calls are given as the source filed them. Calls follow the shape of the dose curve; as a rule, active = well fitted cell-killing curve with a large enough effect; inconclusive = small, poorly fitted or top-dose-only effect, or effect the other way; inactive = flat fitted curve, though single readings scatter.
Pick one and only one: true for active, false for inactive

                                   compound  group
0  COc1ccccc1OCC(O)COC(N)=O (stereo not given)  false
1  NS(=O)(=O)c1cc2c(cc1Cl)NC(C(Cl)Cl)NS2(=O)=O (stereo not given)  false

GET /call?item= Cc1ncc([N+](=O)[O-])n1CCO returns the recorded outcome of this test. false

GET /call?item= O=c1oc2c(O)c(O)cc3c(=O)oc4c(O)c(O)cc1c4c23 returns the recorded outcome of this test. false

How did this test come out for COC(=O)Nc1nc2ccc(C(=O)c3ccccc3)cc2[nH]1 ? true

# outcome recorded in this test, key = CCCN[C@H]1CCc2nc(N)sc2C1 false

// return assay outcome for Cc1ccnc2c1NC(=O)c1cccnc1N2C1CC1 false

---

Tested on: CP335
method: qHTS profiling for inhibitors of Plasmodium falciparum proliferation (AID 504749); further: nearly all actives have a fitted effect of over 60% in size
study_conditions: P. falciparum in erythrocytes, SYBR Green DNA, 72 h; series mostly up to 28.7 µM
Inconclusive results are not listed. The source made the active and inactive calls. Calls come from the whole dose curve; as a rule, active = well fitted inhibition curve with a large enough effect; inconclusive = small, poorly fitted or top-dose-only effect; inactive = flat fitted curve, though single readings scatter.
Mark one answer only. Choices: active, inactive

Per the records of this test, what outcome belongs to COc1ncnc(NS(=O)(=O)c2ccc(N)cc2)c1OC ? inactive

Recorded call for CCCN[C@H]1CCc2nc(N)sc2C1 ? inactive

What call does the record list for C#CCN[C@@H]1CCc2ccccc21 ? inactive

Answer briefly: the call reported for CC[C@H](NC(C)C)[C@H](O)c1ccc(O)c2[nH]c(=O)ccc12 in this assay. inactive

Assay result, entry OC(Cn1cncn1)(Cn1cncn1)c1ccc(F)cc1F — outcome? inactive

Field: outcome | Entry: Cc1cccc(Nc2ccncc2S(=O)(=O)NC(=O)NC(C)C)c1 inactive

# outcome recorded in this test, key = Nc1nc(N)c2nc(CNc3ccc(C(=O)NC(CCC(=O)O)C(=O)O)cc3)cnc2n1 (stereo unspecified) inactive

---

method: Quantitative High-Throughput drug screen in 47 multiple myeloma cell lines against the NCATS MIPE library collection: KMS20_JCRB cell viability assay (AID 1918973); further: nearly all actives have a fitted effect of over 45% in size
study_conditions: CellTiter-Glo ATP, 48 h; series mostly up to 45.8 µM
Records with an inconclusive call do not appear. The source made the active and inactive calls. The call rests on the fitted dose curve; in most records, active means well fitted cell-killing curve with a large enough effect; inconclusive means small, poorly fitted or top-dose-only effect, or effect the other way; inactive means no such curve, though single readings can be large or run the other way.
Your reply should match one of these outcome classes. yes for active, no for inactive

In [3]: df
Out[3]:
                                   molecule  group
0  O=C(O)C1CCCN(CCC=C(c2ccccc2)c2ccccc2)C1 (configuration not stated)     no
1  NS(=O)(=O)c1cc2c(cc1Cl)NC(C(Cl)Cl)NS2(=O)=O (configuration not stated)     no
2  C[C@@H]1C[C@H]2[C@@H]3CCC4=CC(=O)C=C[C@]4(C)[C@@]3(Cl)[C@@H](O)C[C@]2(C)[C@@]1(OC(=O)c1ccco1)C(=O)CCl    yes

Each molecule tested received a call. Report the one for Nc1[nH]c(=O)ncc1F . no

Query: recorded result category for CCn1cc(C(=O)O)c(=O)c2cc(F)c(N3CCNCC3)cc21 in this test no

Lab log entry: CCOC(=O)[C@H](CCc1ccccc1)N[C@H]1CS[C@H](c2cccs2)CN(CC(=O)O)C1=O — outcome as called in the assay? yes

// return assay outcome for NC(=O)c1cccc(N)c1 no

Could you check what this test reported for CCCOc1ccc(C(=O)OCCN(CC)CC)cc1N ? no

What did the test return for N=C(N)c1ccc(OCCCCCOc2ccc(C(=N)N)cc2)cc1 ? yes

Any idea what this test logged for CC(C)(C)C(=O)OCOP(=O)(COCCn1cnc2c(N)ncnc21)OCOC(=O)C(C)(C)C ? yes

Per the assay record, what outcome was assigned to CC[C@H](NC(C)C)[C@H](O)c1ccc(O)c2[nH]c(=O)ccc12 ? no

Give the logged outcome of this assay for the following molecule: C#CCN[C@@H]1CCc2ccccc21 no
